src = the supplement of paper PMC11208160

The reader will find reported recombinant UMI read abundance (log10) values listed item by item below.
TEST_DESCRIPTION: recombinant UMI read abundance after kanamycin selection (control-corrected) (log10(CPM+1)); higher = more efficient recombination; extreme values may be limits of the assay; sequences stand for … in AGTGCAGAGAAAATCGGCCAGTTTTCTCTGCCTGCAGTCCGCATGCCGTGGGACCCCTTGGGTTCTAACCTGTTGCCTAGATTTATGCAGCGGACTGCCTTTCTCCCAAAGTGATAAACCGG…AGGTTGGTTTCACT; site = the 11-nt donor;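 note: IS621 bridge recombinase in Escherichia coli cells against a fixed T5 target plasmid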
MEASURED_METRIC: recombinant UMI read abundance (log10)

1. GTTGGAGCATGGACCGGTTTTCCCGGTAATCCGTATTTGCA (site GTTTGAGCTTG) : 0.659
2. ACACTAACATGGACCGGTTTTCCCGGTAATCCGTATTTGTC (site ACACCAACTGA) : 0.94
3. TCAGAGACATGGACCGGTTTTCCCGGTAATCCGTATTTGGG (site TCAGAGACTCT) : 0.0246
4. GCTGTGTCATGGACCGGTTTTCCCGGTAATCCGTATTTGGA (site GCTGTGTCTTC) : 1.46
5. ACACTTTCATGGACCGGTTTTCCCGGTAATCCGTATTTGCA (site ACAGTATCTTG) : 1.19
6. GCGAAAACATGGACCGGTTTTCCCGGTAATCCGTATTTGGT (site GCGAAAACTAG) : 0
7. ACATTATCATGGACCGGTTTTCCCGGTAATCCGTATTTGCA (site ACAATATCTTG) : 1.92
8. GTTTATCCATGGACCGGTTTTCCCGGTAATCCGTATTTGCT (site GATTATCCTAG) : 0
9. ACACATCCATGGACCGGTTTTCCCGGTAATCCGTATTTGAC (site GCACATCCTGT) : 0
10. ACACTAACATGGACCGGTTTTCCCGGTAATCCGTATTTGTC (site ACACAAACTGA) : 0
11. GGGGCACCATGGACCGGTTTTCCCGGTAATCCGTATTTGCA (site GGGGCACCTAG) : 0.0125
12. CTATCATCATGGACCGGTTTTCCCGGTAATCCGTATTTGCT (site CTATCATCTAG) : 2.06
13. CGATCCTCATGGACCGGTTTTCCCGGTAATCCGTATTTGCT (site CGATCTTCTAG) : 0
14. AATTAGGCATGGACCGGTTTTCCCGGTAATCCGTATTTGGG (site AATTAGGCTCC) : 0.0811
